Would you mind telling me the reported apparent Kd of each entry?
Test system: MS2 coat protein
Assay: apparent Kd, MS2 coat protein; higher = weaker binding; RNA-MaP array
Conditions: designed as: ON switch for flavin mononucleotide; no ligand
Give bare numbers, in nM.

Sample records with apparent Kd:
>>> measured("CGCAGACAUGAGGAUCACCCAUGUACCAUGAACAGGAAUACAAGAAGGGCAAACUUUAGAUUGAUGCAGGAUAUUGUCACGAGA")
25.8
>>> measured("CGCCUAGGGUAUCAGGAUAUGACGGGCAUAACAUGAGGAUCACCCAUGUAAGAGUAGUACAGUUGUCAGAAGGGAUGAUCUAGAAU")
162
>>> measured("UCCACACAUGAGGAUCACCCAUGUUGACAUUAUUGAGGAUAUCGGAGUGAAGGUUCGGUUCGAGAAGGCAACCAGA")
19.8
>>> measured("CACUACUCCCAAGGAUAUUACGCUACAAAUCUUACUAACAUGAGGAUCACCCAUGUUCGGAACGGAAAGAAGGUGGGCUUAUAC")
9.38
>>> measured("UUUAACACCGGCAAGGAUAUUCUACAAAGAACAUGAGGAUCACCCAUGUCAACAAUCUACAUCACGAAGAAGGUGCAUCGGAUUAA")
17.4

Each sequence below has a recorded value; state its apparent Kd.
1. CUAUCACAUGAGGAUCACCCAUGUAUGAUAAUCAUAGGAUAUAGUGCCAGCCAUAAUUUACUAGAAGGAUGUUUCU
2. GCGAUAGCUGUCAAGGAUAUGAGGCUGACCACAUGAGGAUCACCCAUGUUUACAACAAAAUAGAUUCAGAAGGUGACAACAAGUAG
3. UAGAUAAGAAUCAAGGAUAUGAAAAGGCACACAUGAGGAUCACCCAUGUCAAGCACAAAAUGACGUCAGAAGGUGAUAAGCAGCAA

Resp:
11.7
80.3
57.6
